method: small-molecule binders of probe aInhba, primary screen, biochemical, small-molecule microarray, 635/667 nm fluorescence (AID 1148);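 further: score merges 667nm spot fluorescence with signal-to-noise for antibody binding to printed compounds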
experimental-conditions: higher = more signal
measurement-type: composite z-score
I'd appreciate a reply containing only the number, no unit.

Would you please look over these solved cases?
[[record]]
molecule = "Cc1ccc(S[C@]2(C(=O)NCC(F)(F)F)CC(=O)N(Cc3ccccc3C(F)(F)F)[C@@H]2c2ccc(CO)cc2I)cc1"
test_value = -0.024

[[record]]
molecule = "COC(=O)C(CC#Cc1ccc2c(c1)[C@]1(C(=O)N2)[C@H](C(=O)N2CCN(c3ncccn3)CC2)[C@H]2C(=O)O[C@H](c3ccccc3)[C@H](c3ccccc3)N2[C@@H]1c1ccc(OCCO)cc1)C(=O)OC"
test_value = 0.109

[[record]]
molecule = "CN1C(=O)C2C=CC(C(O)c3cccc(O)c3)N(Nc3ccccc3)C2C1=O (configuration not stated)"
test_value = 0.142

[[record]]
molecule = "CCCCC(O)C1C=CC2C(=O)N(c3ccccc3)C(=O)C2N1Nc1ccc(C(C)C)cc1 (configuration not stated)"
test_value = 0.341

[[record]]
molecule = "O=C1O[C@H](c2ccccc2)[C@H](c2ccccc2)N2[C@H]1[C@@H](C(=O)O)[C@]1(C(=O)Nc3ccc(C#CC4=CCCCC4)cc31)[C@H]2c1ccc(O)cc1"
test_value = -0.157


// query composite z-score value for entry CCC[C@@H]1C[C@@]1(CCC)[C@@H](NC(=O)OCc1ccccc1)c1ccc(-c2ccccc2)cc1
-0.12

Given the entry COC(=O)c1nc2oc1CC[C@@H](CO)NC(=O)N(C)Cc1cnnn1C[C@H](Cc1ccccc1)NC2=O , report its measured composite z-score.
-0.268

###

target-of-assay: Torsin-1A-interacting protein 2 (Homo sapiens) (UniProt Q8NFQ8)
Sequence (Q8NFQ8 whole entry, looked up): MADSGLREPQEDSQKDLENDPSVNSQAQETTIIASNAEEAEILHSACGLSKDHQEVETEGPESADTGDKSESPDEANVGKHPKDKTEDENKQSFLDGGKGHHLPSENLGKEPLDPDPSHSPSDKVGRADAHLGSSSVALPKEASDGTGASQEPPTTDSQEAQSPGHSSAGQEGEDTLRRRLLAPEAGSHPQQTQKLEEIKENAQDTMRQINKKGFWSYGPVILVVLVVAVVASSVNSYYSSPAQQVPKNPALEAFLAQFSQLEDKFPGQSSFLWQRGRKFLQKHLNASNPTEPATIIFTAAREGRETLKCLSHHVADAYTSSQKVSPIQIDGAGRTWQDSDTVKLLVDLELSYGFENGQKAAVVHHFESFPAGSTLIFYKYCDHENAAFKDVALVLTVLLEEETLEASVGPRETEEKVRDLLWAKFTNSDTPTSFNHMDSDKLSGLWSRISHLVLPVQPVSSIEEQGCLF
method: LULL1 binders on small-molecule microarray, primary screen, cell lysate, human LULL1 lysate, 635/667 nm fluorescence (AID 1092);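 further: probe is lysate of COS7 cells overexpressing human LULL1; score merges per-feature 667 nm fluorescence with signal-to-noise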
experimental-conditions: hLULL1 lysate binding, 635 nm fluorescence, higher = more signal
measurement-type: composite z-score
Reply with the value as a number alone.

Worked cases, composite z-score given:
[[record]]
compound = "C=C(C(=O)CC[C@@H](OC(C)=O)c1ccc(CO)o1)C(C)C"
target_of_assay = "Torsin-1A-interacting protein 2 (Homo sapiens) (UniProt Q8NFQ8)"
test_value = 0.288

[[record]]
compound = "C#CCN([C@@H](Cc1ccc(O)cc1)C(=O)OC)[C@@H](/C=C/C1CC1)[C@H](O)Cc1ccccc1"
target_of_assay = "Torsin-1A-interacting protein 2 (Homo sapiens) (UniProt Q8NFQ8)"
test_value = -0.0965

[[record]]
compound = "CCCCCCCCCCC(O)C1C=CC2C(=O)N(C)C(=O)C2N1Nc1ccc([N+](=O)[O-])cc1[N+](=O)[O-] (stereo not drawn)"
target_of_assay = "Torsin-1A-interacting protein 2 (Homo sapiens) (UniProt Q8NFQ8)"
test_value = 3.02

[[record]]
compound = "C=CCC(OC(C)=O)[C@@H]1[C@@H](N(Cc2ccc(-c3cccc(C(F)(F)F)c3)o2)C(=O)c2ccc(C)cc2)c2cc(OCCCO)ccc2N1C(=O)c1ccc2ccccc2c1 (stereo partly drawn)"
target_of_assay = "Torsin-1A-interacting protein 2 (Homo sapiens) (UniProt Q8NFQ8)"
test_value = 0.407

[[record]]
compound = "N#Cc1ccc(NN2C(C(O)c3ccc(F)cc3)C=CC3C(=O)N(c4ccccc4)C(=O)C32)cc1 (stereo not drawn)"
target_of_assay = "Torsin-1A-interacting protein 2 (Homo sapiens) (UniProt Q8NFQ8)"
test_value = 3.21

[[record]]
compound = "CC1=C([C@H](O)CCc2ccccc2)[C@H](CO)[C@@H]2C(=O)N(C)C(=O)[C@@H]2C1"
target_of_assay = "Torsin-1A-interacting protein 2 (Homo sapiens) (UniProt Q8NFQ8)"
test_value = 1.07

[[record]]
compound = "COC(=O)[C@@]1(Cc2ccc(F)cc2)[C@H]2c3cc(C(=O)N4CCCC4)n(CCN4CNCC4=O)c3C[C@H]2CN1C(=O)c1ccccc1"
target_of_assay = "Torsin-1A-interacting protein 2 (Homo sapiens) (UniProt Q8NFQ8)"
test_value = 3.97


Next item in the queue.
Could you share which composite z-score value was measured for C=C(COC)/C(=C/C[C@H](OC(=O)c1ccncc1)c1ccccc1OCCO)c1cnc2ccccc2c1 ?
2.94

Data origin, for the record: PubChem BioAssay
